# tested-target: mutant G12C K-RAS (Homo sapiens, UniProt P01116, G12C)
# Construct: made in house; host or cells: E. coli BL21
# method-summary: covalent adduct formation (CAF) with mutant G12C K-RAS
# Type: binding
# measurement-conditions: Table 6; 10 μM, 1 h
# Procedure: Embodiments disclosed herein are further illustrated by the following examples in Tables 1-4 and the Examples hereinbelow. The Tables indicate the compound number, structure, the observed mass spectral molecular weight peak, and covalent adduct formation (CAF) with a mutant G12C K-RAS after 60 minutes at a concentration of 10 micromolar.
assay-readout: % CAF @ 10 μM,1 h (%)

# record-smiles, assay-readout, units-of-measure, test-value
data = [
    ("C=CC(=O)N1C2CC(=O)CC1CN(c1nc(=O)n3c4c(c(-c5ccc(F)cc5F)c(C(F)(F)F)cc14)OCC3)C2", "% CAF @ 10 μM,1 h", "%", 95.9),
    ("C=CC(=O)N1C[C@H](C)N(c2nc(=O)n3c4c(c(-c5c(F)ccc6cc[nH]c(=O)c56)ccc24)OCC3)C[C@H]1C", "% CAF @ 10 μM,1 h", "%", 0),
    ("C=CC(=O)N1C[C@H](C)N(c2nc(=O)n3c4c(c(-c5ccc(F)cc5F)c(Cl)cc24)OC[C@@H]3CC2(O)CCN(C)CC2)C[C@H]1C", "% CAF @ 10 μM,1 h", "%", 45.1),
    ("C=CC(=O)N1C[C@H](C)N(c2nc(=O)n3c4c(c(-c5ccc(F)cc5F)c(Cl)cc24)OC[C@H]3CC2CCN(C3CC3)CC2)C[C@H]1C", "% CAF @ 10 μM,1 h", "%", 73.4),
    ("C=CC(=O)N1C[C@H](C)N(c2nc(=O)n3c4c(c(-c5ccc(F)cc5F)c(Cl)cc24)OC[C@@H]3COC[C@@H]2CCCN2C)C[C@H]1C", "% CAF @ 10 μM,1 h", "%", 79.8),
    ("C=CC(=O)N1C[C@H](C)N(c2nc(=O)n3c4c(c(-c5cc(Cl)ccc5F)c(Cl)cc24)OC[C@H]3CN2CCC(F)(F)C2)C[C@H]1C", "% CAF @ 10 μM,1 h", "%", 10.7),
]

---

# tested-target: mutant G12C K-RAS (Homo sapiens, UniProt P01116, G12C)
# Construct: made in house; host or cells: E. coli BL21
# method-summary: covalent adduct formation (CAF) with mutant G12C K-RAS
# Assay type: binding
# measurement-conditions: Table 6; 10 μM, 1 h
Rule: % CAF @ 10 μM,1 h below 80% gives Fulfilled, anything at or above gives Not fulfilled.

# compound, category-label
rows = [
    ("C=CC(=O)N1C[C@H](C)N(c2nc(=O)n3c4c(c(-c5c(O)cccc5F)c(Cl)cc24)OC[C@H]3CN2CCOCC2)C[C@H]1C (atropisomer, axis not shown) [Example 210]", "Fulfilled"),
    ("C=CC(=O)N1C[C@H](C)N(c2nc(=O)n3c4c(c(-c5ccc(F)cc5F)c(Cl)cc24)OC[C@@H]3CCCN2CCOCC2)C[C@H]1C", "Not fulfilled"),
    ("C=CC(=O)N1C[C@H](C)N(c2nc(=O)n3c4c(c(-c5cccc6ccccc56)c(Cl)cc24)OC[C@H]3Cn2cccn2)C[C@H]1C (atropisomer, axis not shown) [Example 292]", "Not fulfilled"),
    ("C=CC(=O)N1C[C@H](C)N(c2nc(=O)n3c4c(c(-c5ccccc5C(F)(F)F)c(Cl)cc24)OCC3)C[C@H]1C", "Fulfilled"),
    ("C=CC(=O)N1C[C@H](C)N(c2nc(=O)n3c4c(c(-c5ccc(F)cc5F)c(Cl)cc24)OC[C@@H]3CCCN2[C@@H]3CC[C@H]2COC3)C[C@H]1C", "Fulfilled"),
    ("C=CC(=O)N1C[C@H](C)N(c2nc(=O)n3c4c(c(-c5ccc(F)cc5F)c(Cl)cc24)OC[C@H]3CCCN(C)C2COC2)C[C@H]1C", "Not fulfilled"),
    ("C=CC(=O)N1C[C@H](C)N(c2nc(=O)n3c4c(c(-c5ccc(F)cc5F)c(Cl)cc24)OC[C@H]3CCCN2CCC(C(=O)NC3CC3)CC2)C[C@H]1C", "Not fulfilled"),
    ("C=CC(=O)N1C[C@H](C)N(c2nc(=O)n3c4c(c(-c5ccc(F)cc5F)c(Cl)cc24)OC[C@@H]3COC2CCN(C)CC2)C[C@H]1C", "Fulfilled"),
]

---

# tested-target: mutant G12C K-RAS (Homo sapiens, UniProt P01116, G12C)
# Construct: made in house; host or cells: E. coli BL21
# method-summary: covalent adduct formation (CAF) with mutant G12C K-RAS
# Format: binding
# measurement-conditions: Table 6; 10 μM, 1 h

# compound, % CAF @ 10 μM,1 h [%]
data = [
    ("C=CC(=O)N1C[C@H](C)N(c2nc(=O)n3c4c(c(-c5c(O)cccc5F)c(Cl)cc24)OC[C@H]3CN(C)CC(F)(F)F)C[C@H]1C (atropisomer, axis not shown) [Example 241]", 0),
    ("C=CC(=O)N1C[C@H](C)N(c2nc(=O)n3c4c(c(-c5ccc(F)cc5F)c(Cl)cc24)OC[C@H]3CCCN2CC[C@H](OC)C2)C[C@H]1C", 84.6),
    ("C=CC(=O)N1C[C@H](C)N(c2nc(=O)n3c4c(c(-c5ccc(F)cc5F)c(Cl)cc24)O[C@@H](CCCN2C4CCC2COC4)C3)C[C@H]1C", 31.6),
]

---

# tested-target: mutant G12C K-RAS (Homo sapiens, UniProt P01116, G12C)
# Construct: made in house; host or cells: E. coli BL21
# method-summary: covalent adduct formation (CAF) with mutant G12C K-RAS
# Assay type: binding
# measurement-conditions: Table 6; 10 μM, 1 h
Listing of entries alongside the reported % CAF @ 10 μM,1 h.

# compound, % CAF @ 10 μM,1 h / %
rows = [
    ("C=CC(=O)N1C[C@H](C)N(c2nc(=O)n3c4c(c(-c5ccc(F)cc5F)c(Cl)cc24)OC[C@H]3Cn2cccn2)C[C@H]1C", 71.3),
    ("C=CC(=O)N1C[C@H](C)N(c2nc(=O)n3c4c(c(-c5c(O)cccc5F)c(Cl)cc24)OC[C@H]3Cn2cccn2)C[C@H]1C (atropisomer, axis not shown) [Example 245]", 0),
    ("C=CC(=O)N1C[C@H](C)N(c2nc(=O)n3c4c(c(-c5ccc(F)cc5F)c(Cl)cc24)OC[C@@H]3CN(C(=O)[C@@H]2CCCN2C)C2CC2)C[C@H]1C", 53.4),
]

---

Catalogue of % CAF @ 10 μM,1 h readings, one per entry.
# tested-target: mutant G12C K-RAS (Homo sapiens, UniProt P01116, G12C)
# Construct: made in house; host or cells: E. coli BL21
# method-summary: covalent adduct formation (CAF) with mutant G12C K-RAS
# Assay type: binding
# measurement-conditions: Table 6; 10 μM, 1 h

# compound, % CAF @ 10 μM,1 h
measured = [
    ("C=CC(=O)N1C[C@H](C)N(c2nc(=O)n3c4c(c(-c5ccc(F)cc5F)c(Cl)cc24)OC[C@H]3COC2CCN(C)CC2)C[C@H]1C [Example 297]", "90.5%"),
    ("C=CC(=O)N1C[C@H](C)N(c2nc(=O)n3c4c(c(-c5ccc(F)cc5F)c(Cl)cc24)OC[C@H]3CCCN2CCS(=O)(=O)CC2)C[C@H]1C [Example 253]", "87.6%"),
    ("C=CC(=O)N1C[C@H](C)N(c2nc(=O)n3c4c(c(-c5ccc(F)cc5F)c(Cl)cc24)OC[C@H]3CCCN2CC[C@H](F)C2)C[C@H]1C [Example 330]", "91.7%"),
]

---

# tested-target: mutant G12C K-RAS (Homo sapiens, UniProt P01116, G12C)
# Construct: made in house; host or cells: E. coli BL21
# method-summary: covalent adduct formation (CAF) with mutant G12C K-RAS
# Assay type: binding
# measurement-conditions: Table 2, Pyrimidone Core-Morpholine Substituted; after 60 minutes at 10 micromolar
hey, just use yes (1) if measured % CAF (60 min) is less than 80%, otherwise no (0)

# compound, category-label
rows = [
    ("C=CC(=O)N1C[C@H](C)N(c2nc(=O)n3c4c(c(-c5c(O)cccc5F)c(Cl)cc24)OC[C@@H]3CO)C[C@H]1C [Example 27]", "no (0)"),
    ("C=CC(=O)N1C[C@H](C)N(c2nc(=O)n3c4c(c(-c5c(O)cccc5F)c(Cl)cc24)OC[C@H]3CO)C[C@H]1C [Example 33]", "no (0)"),
    ("C=CC(=O)N1CCN(c2nc(=O)n3c4c(c(-c5c(O)cccc5F)c(Cl)cc24)OC[C@@H]3CO)[C@@H](C)C1 (single isomer, unassigned) [Example 25]", "no (0)"),
    ("C=CC(=O)N1C[C@H](C)N(c2nc(=O)n3c4c(c(-c5ccc(F)cc5)c(Cl)cc24)OCC3CN(C)C)C[C@H]1C (some centres unmarked) [Example 34]", "yes (1)"),
    ("C=CC(=O)N1CCN(c2nc(=O)n3c4c(c(-c5c(O)cccc5F)c(Cl)cc24)OC[C@H]3CO)[C@@H](C)C1 [Example 23]", "yes (1)"),
    ("C=CC(=O)N1C[C@H](C)N(c2nc(=O)n3c4c(c(-c5ccc(F)cc5F)c(Cl)cc24)OCC3CN(C)C)C[C@H]1C (some centres unmarked) [Example 35]", "no (0)"),
    ("C=CC(=O)N1CCN(c2nc(=O)n3c4c(c(-c5c(O)cccc5F)c(Cl)cc24)OC[C@H]3CO)[C@@H](C)C1 [Example 22]", "no (0)"),
]
